Value source: the supplement of paper PMC8253809

Test system: SUDIPGVI (diffuse intrinsic pontine glioma line)
Assay: growth inhibition (% activity, log2 RLU normalised to DMSO / staurosporine); higher = more growth inhibition
Details: 33 µM
propertyName: growth inhibition (%)
Give the number; % is assumed, so skip it.

# input molecule: Oc1ccc(OC2CCCCO2)cc1 (stereo not drawn) ; wanted: its growth inhibition
0.118

# input molecule: O=P(O)(O)C(Cl)(Cl)P(=O)(O)O ; wanted: its growth inhibition
2.08

# input molecule: CCCc1nn(C)c2c(=O)[nH]c(-c3cc(S(=O)(=O)N4CCN(C)CC4)ccc3OCC)nc12 ; wanted: its growth inhibition
0.71

====

Exercise: for every item that follows, state its recorded growth inhibition.
Test system: DIPGX9 (diffuse intrinsic pontine glioma line)
Test: growth inhibition (% activity, log2 RLU normalised to DMSO / staurosporine); higher = more growth inhibition
Settings: 33 µM
Give the number; % is assumed, so skip it.

What is its growth inhibition for DIPGX9? Entry: CC(c1cc2ccccc2s1)N(O)C(N)=O (stereo not drawn)
-0.313

What is its growth inhibition for DIPGX9? Entry: Nc1ccc(S(=O)(=O)Nc2ccccn2)cc1
-0.171

What is its growth inhibition for DIPGX9? Entry: CO[C@H]1/C=C/O[C@@]2(C)Oc3c(C)c(O)c4c(O)c(c(/C=N/N5CCN(C)CC5)c(O)c4c3C2=O)NC(=O)/C(C)=C\C=C\[C@H](C)[C@H](O)[C@@H](C)[C@@H](O)[C@@H](C)[C@H](OC(C)=O)[C@@H]1C
-1.43
